Taken from the supplement of paper PMC12764529.

Would you kindly list folding stability dG unfold for each of these sequences?
# assay-summary: folding stability dG unfold from trypsin proteolysis; higher = more stable
State the value with its unit after it.

## Task Which folding stability dG unfold is listed for SAGGITIRGMPWEWAEEIAKTLAQEGYRLKDVEVEEDPPDGYYSVTVQQRDPETGKPKKPVTISIPPSAGGS [r16_750_TrROS] ?
## Result 0.594 kcal/mol

## Task What do you get for SAGGGSSVLSETVSVDPNNVTTTTTTYKAGDTTSTTTTTTTTTPPVPNLPLPPPPPVSPEAIALGLLLSAGG [r13_760_JUSTAS] ?
## Result 0.648 kcal/mol

## Task What do you get for SAGGSAGGSAGGKELEIVLYDKETNVLVTAKVRMENGKLTITEVKVEKVKPPKLPPGVKPSAGGSAGGSAGG [r7_276_TrROS_Hall] ?
## Result 1.48 kcal/mol

## Task What do you get for SMPPDEKLIFVTRFKVKPDNPEDIEKALAAARETVRALLEELGLPEVKEVRVLRVEVHPDGYVTVVVEVGSA [r9_754_TrMRF] ?
## Result 4.05 kcal/mol

## Task What do you get for SAGGSAGGSAGGDSVQIEFPDNGMTITINPNNGPISIMEPDGKKKTYPVDSPEEALDAISAGGSAGGSAGGS [r10_849_TrROS] ?
## Result 0.221 kcal/mol

## Task What do you get for SAGGSAGGSAGGKPKLIVRVKIKNENGEEIEIEIEVETLDEAKEAAKKLGFEIVEVEVLSAGGSAGGSAGGS [r10_882_TrROS_Hall] ?
## Result 3.94 kcal/mol

## Task What do you get for SAMSEKDMEPIETFELPETNVKIELYYNKKTKKYVIKIKNKKTKKTKTIVIKSKDGKITLEELKKLIKKSAG [r14_948_TrROS_Hall] ?
## Result 2.93 kcal/mol

## Task What do you get for SAGGSAGGSAGGPKIEVNEDGTVTITLEVDGKLVTKTVKVELEAPPVETVEFVKEGEEVSAGGSAGGSAGGS [r10_240_TrROS_Hall] ?
## Result 0.822 kcal/mol

## Task What do you get for SAGGSAGGSMSPSESVTLTVVVEEITPGTPKVLLPEEVKEKYPNFEVQVKVEGKPATVTITRPSAGGSAGGS [r12_900_JUSTAS] ?
## Result 0.321 kcal/mol

## Task What do you get for SAGGSAGGLKEALKLAEELGAKPHVVKTKGNSEIVFLELKDGRKIRLLVENGKIKEIIPIPETPSAGGSAGG [r6_548_TrMRF] ?
## Result 1.86 kcal/mol

## Task What do you get for SAGGSAGGSEVEITVTETEDTVTVTIRFKDTGKTVTITVPKDMTPEEVLARAKELLKKLGIEPSAGGSAGGS [r12_764_TrROS_Hall] ?
## Result 3.91 kcal/mol

## Task What do you get for SAGGSAGGSMEEIIEEIKKKVPKDKYAEIEIEVPFPDGSKKKFKIKFYPETNEFEVEELEEIPSAGGSAGGS [r12_305_TrMRF] ?
## Result 3.12 kcal/mol

## Task What do you get for SAGGSAGGSDWFPIRVEDIEYERDPADGRDSVTIEAQFPGKPHTFTIPPNAPIKPGDELWIPFSAGGSAGGS [r20_49_TrROS] ?
## Result -1.9 kcal/mol

## Task What do you get for SAGGMTLKIRVKDKEKALEALKALPGIEVKEVKVEKNENGELTVTVESKEALDALKKAGIEVEEIEPSAGGS [r16_381_TrROS_Hall] ?
## Result 2.33 kcal/mol

## Task What do you get for SAGGSAGGGIEPGKKVKAKATLILPGGKPIPFTATFTPDYVTLDLGKGSLTVPVEFIAHLEIEDSAGGSAGG [r6_132_TrMRF] ?
## Result 0.371 kcal/mol

## Task What do you get for SAGGSAGGMKIEPIAEDEDYIVVRVEPDLPELLEELGLEVVGVEEEGDYVIVVVKVPPEVREKFSAGGSAGG [r6_108_TrMRF] ?
## Result 0.649 kcal/mol

## Task What do you get for KKTYTAEEIRKLAEKLGLEVPEGDLEIKVVFKDNKKTYTIKPGEEYTLEEILEKLKKEKPNIVKIEIKKKPS [r1_135_TrROS_Hall] ?
## Result 1.32 kcal/mol

## Task What do you get for SAGGSAMGTLRLGFVTGPDEEGRYEILDVTLEPGEPVLVTLRARFTFPDGDSVEVPFRFVVPPELLSAGGSA [r15_187_TrMRF] ?
## Result 2.78 kcal/mol

## Task What do you get for SAGGKIKIMDIEIERHGGYYKIEIWIQVDTPDDIEDLLKAGVPNVEVERRRNPNGRLYVQAEFYIPAGSAGG [r13_506_TrROS] ?
## Result 1.74 kcal/mol

## Task What do you get for SARIRIMVPPDFIMVRTPKGKMRMVDDPEEIEEIIKDILPVPIEIEPLPPNSPKFQKMMEMMMREQNGPSAG [r14_235_TrROS] ?
## Result -0.264 kcal/mol

## Task What do you get for KTVHIPINGMPLDEMLDMARDALREDPDEGKTITIWVPGNPEWLENLGFDKIEPYKDPERPYMRIKFKVPPS [r1_467_TrROS] ?
## Result 0.298 kcal/mol

## Task What do you get for SAGGPNLYIFIKIEHKGQTVTFMYPVPPGNLEKLVDEIASMGFPEIKIEEIYIFPPNGWIPVTVRLPSAGGS [r8_219_TrROS] ?
## Result 2.88 kcal/mol

## Task What do you get for SMNVKPFSSTISNPAVTVTTPITQPSSGEGTATLTIHRPESVTTTTHPVTDLQALIDSHAAGGVSLTGTSSA [r9_384_JUSTAS] ?
## Result -0.377 kcal/mol

## Task What do you get for SAGGMIPEELIRKLFEDGKPVPLEQIVELIEKLTGRPVRLEEGEDKFRIVVLDPDTPELLDEIEIDFSAGGS [r8_105_TrMRF] ?
## Result 1.43 kcal/mol

## Task What do you get for SAGGMTLNITVEIPGLGTTITKTFSANPSDYEKIARETEEENPEYKLTSVKVTYSPNSITIDATVELVSAGG [r13_196_JUSTAS] ?
## Result 1.38 kcal/mol

## Task What do you get for MKKTIPFPPSHPDLSPEEVAERLRERFLSPEESITVTTDPATGTTTVTATRGNVTTVATLSPAGTVTVTGAS [r1_131_JUSTAS] ?
## Result -0.0831 kcal/mol

## Task What do you get for SAGGSAGGSAGKLPEGMKMEVRPKTIFNEDGYMIKITIIRAPDPNILAINIEIIPPGDPISAGGSAGGSAGG [r11_338_TrROS] ?
## Result 2.04 kcal/mol
